# Tested on: SN12C
# assay_explanation: NCI tumour cell line growth inhibition, 48 h
The source made the active and inactive calls. Rule as the data show it: active = GI50 up to about 1.1 µM and inactive = higher.
Below, each entry is listed with its recorded GI50.

## Input Any idea what GI50 was measured for "C[C@H](NC1=CC(=O)C(N[C@@H](C)[C@H](O)c2ccccc2)=CC1=O)[C@H](O)c1ccccc1" ?
## Output > 100 µM (inactive)

## Input Any idea what GI50 was measured for "O=c1c(C(c2ccccc2)c2c(O)oc3cc(O)ccc3c2=O)c(O)oc2cc(O)ccc12" ?
## Output > 100 µM (inactive)

## Input Any idea what GI50 was measured for COc1cc(C2c3cc4c(cc3OC(NNC(N)=O)C2C)OCO4)cc(OC)c1O (configuration not stated) ?
## Output 4.9 µM (inactive)

## Input Any idea what GI50 was measured for "C/C=C1/C(=O)O[C@]23C=C[C@@H]4C(C(=O)OC)=CO[C@H](O[C@@H]12)[C@@H]43" ?
## Output 1.98 µM (inactive)

## Input Any idea what GI50 was measured for "O=C(CCl)NNC1=Nc2ccc(Cl)cc2SC1" ?
## Output 1.95 µM (inactive)

----------
# Test system: ACHN
# assay_explanation: NCI tumour cell line growth inhibition, 48 h
Calls of active or inactive are those of the source. No stated cut-off is given here; in the data, active = GI50 up to about 1.1 µM and inactive = higher.
API: response.call in Y = active, N = inactive

Example results:
COc1cc2nc(Sc3c([N+](=O)[O-])ncn3C)[nH]c2cc1OC	N
CCN(CC)C(=O)Cc1[nH][nH]c(=O)c1C(=O)N(CC)CC	N
Cc1ccc(-c2cc(N)n(-c3nc4c(c(=O)n(C)c(=O)n4C)n3C)n2)cc1	N
Cc1nc2cc(C(F)(F)F)ccc2[nH]c1=O	N
CCOC(=O)C(Cl)(NC(=O)c1ccc(F)cc1)C(F)(F)F (stereo not given)	N
CCCc1cn2c(/C=N/NC(=N)N)c(-c3ccc([N+](=O)[O-])cc3)nc2s1	N

## Input Hi, do you know how "CCCn1cnc2c(/N=N/O)ncnc21" came out in this test?
## Output N

## Input Hi, do you know how CC(O)CC(=O)CO[C@H]1[C@H](O)[C@@H](O)[C@@H](O)[C@@H]2NC(=O)c3c(cc4c(c3O)OCO4)[C@H]21 (stereo not given in full) came out in this test?
## Output Y

## Input Hi, do you know how "O=c1cc(-c2ccccc2)oc2cc(OCCCCCCCCCCOc3ccc4c(=O)cc(-c5ccccc5)oc4c3)ccc12" came out in this test?
## Output N

## Input Hi, do you know how "CN(C)c1ccc2nc(CC(O)(C(F)(F)F)C(F)(F)F)ccc2c1" came out in this test?
## Output N

## Input Hi, do you know how "CCNc1ccc2c(c1)C(=O)N(OS(C)(=O)=O)C2=O" came out in this test?
## Output N

## Input Hi, do you know how CCOC(=O)c1cc(C2CCN(c3ccccc3)C2=O)c(C(=O)/C=C(/C)O)[nH]1 (stereo not given) came out in this test?
## Output N

## Input Hi, do you know how COc1ccc2[nH]c3c(c2c1)CC(=S)N1CCCC(CC3=O)C1 (stereo not given) came out in this test?
## Output N

## Input Hi, do you know how "O=C1c2cc(Cc3ccccc3)c(=O)c(Cc3ccccc3)cc2C(=O)c2cc(Cc3ccccc3)c(=O)c(Cc3ccccc3)cc21" came out in this test?
## Output N

----------
# Tested on: COLO 205
# assay_explanation: NCI tumour cell line growth inhibition, 48 h
Where a name gives a salt, the structure may show the parent alone. Activity calls are given as the source filed them. Cut-off read from the data, not from the text of the source: active = GI50 up to about 1.1 µM and inactive = higher.
API: response.call in true (active), false (inactive)

O=C(/C=C/c1ccc(-c2ccccc2)cc1)NCc1ccc(C(=O)NCCc2ccccc2)cc1	false

## Input Hi, do you know how CN1CCC(CN2c3ccccc3Sc3ccccc32)C1 (stereo not drawn) [METHDILAZINE HYDROCHLORIDE] came out in this test?
## Output false

## Input Hi, do you know how "Cc1cc(C)c(S(=O)(=O)N(CCCCCN)OCCCN)c(C)c1" came out in this test?
## Output false

----------
# Tested on: HT-29
# assay_explanation: NCI tumour cell line growth inhibition, 48 h
Activity calls are given as the source filed them. Cut-off read from the data, not from the text of the source: active = GI50 up to about 1.1 µM and inactive = higher.
API: response.call in label 1 (active), label 0 (inactive)

C=C1CC[C@H](O)C(C)(C)[C@@H]1CC/C(C)=C/CC/C=C(\C)CC/C=C(\C)CCC=C(C)C	label 0
O=C(c1cccnc1)N1N=C(c2ccccc2)CC1(O)c1cc(F)c(Cl)cc1Cl (stereo not given)	label 0
CCOC(OC1=CCCC1)C(C)[Se]c1ccccc1 (stereo not given)	label 0
CCCc1cn2c(/C=N/NC(=N)N)c(-c3ccc([N+](=O)[O-])cc3)nc2s1	label 1
COc1ccc2c3c([nH]c2c1[N+](=O)[O-])C(C)N(Cc1ccc([N+](=O)[O-])cc1)CC3 (stereo not given)	label 0
O=C(Nc1cccc(Cl)c1)C(=O)C(C(=O)c1ccc2ccccc2c1)C1OC(=O)c2ccccc21 (stereo not given)	label 0
CN(C)/C=N\c1ccn(CCO)c(=O)n1	label 0
CCCCCCNc1n[nH]c(=O)c2c1nnn2Cc1ccccc1	label 0

## Input Hi, do you know how "CCOC(=O)NC(=O)c1cn(CCCCCCCCCCC(=O)N2CCN(CCn3cc(C(=O)NC(=O)OCC)c(=O)[nH]c3=O)CC2)c(=O)[nH]c1=O" came out in this test?
## Output label 0

## Input Hi, do you know how Cc1ccc([N+](=O)[O-])cc1S(=O)(=O)Nc1ccc(C2=NNC(c3ccccc3O)C2)cc1 (stereo not given) came out in this test?
## Output label 0

## Input Hi, do you know how "Clc1ccc(Cc2nc3cc(CCN4CCN(c5ccccc5)CC4)ccc3[nH]2)cc1" came out in this test?
## Output label 0

## Input Hi, do you know how C[C@]12CC(C=O)C(=O)C(O)=C1CC[C@@H]1C2CC[C@@]2(C)C1CC[C@]2(C)O (stereo not given in full) came out in this test?
## Output label 0

## Input Hi, do you know how "CC(=O)O/N=C/c1ncccc1OC(C)=O" came out in this test?
## Output label 0

## Input Hi, do you know how COc1ccc(OC)c2c1C[C@@H]1C(C#N)N3[C@H](Cc4c(OC)ccc(OC)c4[C@@H]3C)C(=O)N1[C@H]2C (stereo not given in full) came out in this test?
## Output label 0

----------
# System: Malme-3M
# assay_explanation: NCI tumour cell line growth inhibition, 48 h
Calls of active or inactive are those of the source. Rule as the data show it: active = GI50 up to about 1.1 µM and inactive = higher.
test_readout: GI50

Worked examples, 5 compounds total:
CC1=C(c2ccccc2)CON(c2ccccc2)C1	56.4 µM (inactive)
CCOC(=O)C[C@@H](C)[C@]1(C(=O)OC)CCCC1=O	> 100 µM (inactive)
CC(=O)NC1=C(C)C(=O)c2c(nc3n2CCC3O)C1=N (stereo not given)	6.41 µM (inactive)
O=C(CSCC(=O)N/N=C/c1cccc(O)c1)N/N=C/c1cccc(O)c1	> 100 µM (inactive)
C=C(C=O)CCCC(C)[C@@H]1CCC23CC12CCC1[C@@]2(C)CCC(OC(C)=O)C(C)(C)C2CC(OC2OC(COC(C)=O)C(O)C(O)C2O)[C@]13C (stereo not given in full)	2 µM (inactive)

## Input Any idea what GI50 was measured for "Oc1cc(-c2ccc3ccccc3c2)nc2ncccc12" ?
## Output 13.1 µM (inactive)

----------
# Tested on: M14
# assay_explanation: NCI tumour cell line growth inhibition, 48 h
Active and inactive are the calls of the source. Rule as the data show it: active = GI50 up to about 1.1 µM and inactive = higher.
API: response.call in yes (1) (active), no (0) (inactive)

Example results:
COC(=O)C12C3C4C1C1C2C3C41I (centres undefined)	no (0)
Cc1ccc(S(=O)(=O)OCCn2cnc3nc(NC(=O)c4ccccc4)[nH]c(=O)c32)cc1	no (0)
CCc1cc(Cc2cc(Cl)c(NC(=O)C(=O)C3NC(=O)NC3=O)c(CC)c2)cc(Cl)c1NC(=O)C(=O)C1NC(=O)NC1=O (centres undefined)	no (0)

## Input Hi, do you know how "COc1cccc2c1CCc1c(-c3ccc(F)cc3)cc(-c3ccc4ccccc4n3)nc1-2" came out in this test?
## Output no (0)

## Input Hi, do you know how "CC(C)C(/C=C/c1ccc(Cl)cc1)=N\NC(=S)NN" came out in this test?
## Output no (0)

## Input Hi, do you know how "O=C(/C=C/c1cc(F)ccc1F)OCCc1ccccc1" came out in this test?
## Output no (0)

## Input Hi, do you know how CC(=O)C(CN1CCOCC1)C(c1ccccc1)c1c(O)c2ccccc2oc1=O (centres undefined) came out in this test?
## Output no (0)

## Input Hi, do you know how "CC(C)(NO)/C(=N\O)c1ccco1" came out in this test?
## Output no (0)

## Input Hi, do you know how "O=c1[nH]c(Nc2nc3ccccc3[nH]2)nc(O)c1-c1ccccc1" came out in this test?
## Output no (0)

## Input Hi, do you know how "CC(=O)CC(=O)/C=C/c1cccs1" came out in this test?
## Output no (0)
